Measured values drawn from patent US20240301076A1 for this set.

Target: T1, human CXCR2 (human, UniProt P25025 1-360)
T1 construct: also called CXC chemokine receptor 2; hCXCR2
T1 sequence: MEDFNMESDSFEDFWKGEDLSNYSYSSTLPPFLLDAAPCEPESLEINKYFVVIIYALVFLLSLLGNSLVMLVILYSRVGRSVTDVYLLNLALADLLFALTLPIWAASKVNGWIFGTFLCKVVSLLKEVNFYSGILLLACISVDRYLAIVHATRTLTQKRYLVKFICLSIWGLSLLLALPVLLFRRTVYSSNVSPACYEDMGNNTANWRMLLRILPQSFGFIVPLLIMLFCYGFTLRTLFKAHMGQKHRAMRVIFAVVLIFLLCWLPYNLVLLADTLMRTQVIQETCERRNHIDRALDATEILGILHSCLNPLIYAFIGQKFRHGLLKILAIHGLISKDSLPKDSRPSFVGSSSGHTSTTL
Experiment: flow cytometry, CXCR2-transfected Expi293F cells
QUANTITY: Max binding (MFI)

input: What value of measured Max binding (MFI) is listed for BKO-4A8-104c (antibody, human IgG4 S228P, lambda, V domains shown, IgG4 S228P, lambda) VH: EVQLLESGGGLVQPGGSLRLSCAASGFTFSSSTQSWVRQPPGKGLEWVSAISGSGGSTYYADSVKGRFTISRDNSKNTLYLQMNSLRAEDTAVYYCAIQKGYWGQGILVTVSS VL: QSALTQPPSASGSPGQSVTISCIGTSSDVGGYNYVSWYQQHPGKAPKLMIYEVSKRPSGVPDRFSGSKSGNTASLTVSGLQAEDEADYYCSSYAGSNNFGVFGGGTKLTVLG ?
output: 45100 MFI
